These data points were gathered from ChEMBL document CHEMBL1123459.

# TARGET_SYSTEM: D(1A) dopamine receptor (Rattus norvegicus)
# Sequence (P18901 whole entry): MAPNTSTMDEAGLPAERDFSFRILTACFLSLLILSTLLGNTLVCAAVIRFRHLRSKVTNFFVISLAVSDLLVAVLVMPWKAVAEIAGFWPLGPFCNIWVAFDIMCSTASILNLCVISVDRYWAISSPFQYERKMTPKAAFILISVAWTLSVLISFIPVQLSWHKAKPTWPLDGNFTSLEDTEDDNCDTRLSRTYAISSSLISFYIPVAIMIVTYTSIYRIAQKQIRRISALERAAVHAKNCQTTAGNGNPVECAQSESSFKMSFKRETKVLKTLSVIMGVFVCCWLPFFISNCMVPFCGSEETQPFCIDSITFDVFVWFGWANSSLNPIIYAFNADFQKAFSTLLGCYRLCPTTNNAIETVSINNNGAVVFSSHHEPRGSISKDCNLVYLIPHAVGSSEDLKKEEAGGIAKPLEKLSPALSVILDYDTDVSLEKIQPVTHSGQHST
# MEASUREMENT_NOTES: Compound was tested for binding affinity against dDopamine receptor D1 using [3H]fenoldopam as a radioligand
METRIC_NAME: pKi
Just so you know, pKi here is -log10 of the concentration in molar units; reply with that number alone.

Endpoint output: pKi of Oc1cc2c(cc1O)CCNCC2 . Value?
6.01

###

# TARGET_SYSTEM: UniProt:P18901
# MEASUREMENT_NOTES: Displacement of [3H]fenoldopam from Dopamine receptor D1 of rat striatum membranes
# Format: cell membranes, Membrane
pKi: −log10 of the molar value.
# label = true (1) if pKi >= 6 else false (0)

Some solved entries appear below for comparison.
>>> class("Oc1cc2c(c(-c3ccccc3)c1O)CCNCC2")
"false (0)"
>>> class("NCC1c2cc(O)ccc2-c2c1ccc(O)c2O (stereo not given)")
"true (1)"
>>> class("Oc1ccc(-c2c(O)c(O)c(Cl)c3c2CCNCC3)cc1")
"false (0)"

Threshold query (pKi >= 6) on CCCN(CCC)CCc1ccc(O)c(O)c1-c1ccc(O)cc1
false (0)

Okay, and NCC1c2ccccc2-c2c1ccc(O)c2O (stereo not given) ?
true (1)

Okay, and CCCN(CCC)CCc1ccc(O)c(O)c1-c1ccccc1 ?
false (0)

Okay, and Oc1ccc(-c2c(O)c(O)cc3c2CCNCC3)cc1 ?
false (0)

Okay, and NCCc1ccc(O)c(O)c1-c1ccc(O)cc1 ?
false (0)
